# Ki per entry
- TARGET UNDER TEST: Molt/4F dCyd kinase (Homo sapiens)
- Construct: endogenous in cells
- Sequence (P27707 whole entry): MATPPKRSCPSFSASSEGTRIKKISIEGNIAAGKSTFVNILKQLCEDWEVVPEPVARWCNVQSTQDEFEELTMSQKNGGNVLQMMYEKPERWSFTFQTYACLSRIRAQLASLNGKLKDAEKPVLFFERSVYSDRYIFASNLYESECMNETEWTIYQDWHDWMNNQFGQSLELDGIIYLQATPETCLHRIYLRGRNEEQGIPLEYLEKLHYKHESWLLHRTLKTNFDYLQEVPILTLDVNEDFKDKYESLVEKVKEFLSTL
- EXPERIMENT NOTES: Inhibition of dCyd kinase (Lineweaver-Burk)
- EXPERIMENTAL PARAMETERS: substrate (U-14C)dCyd

COMPOUND	TARGET UNDER TEST	READOUT UNITS	Ki
[N-]=[N+]=N[C@H]1C[C@H](n2ccc(N)nc2=O)O[C@@H]1CO [AzddCyd, 3′-Azido-2′,3′-dideoxycytidine]	Molt/4F dCyd kinase (Homo sapiens)	µM	354
Nc1ccn([C@H]2C[C@H](F)[C@@H](CO)O2)c(=O)n1 [FddCyd, 3′-fluoro-2′,3′-dideoxycytidine]	Molt/4F dCyd kinase (Homo sapiens)	µM	360
